TARGET UNDER TEST: human KDR (VEGFR2) on cells (human, UniProt P35968 20-1356); also: test concentration or dose not given here
Sequence (P35968 20-1356): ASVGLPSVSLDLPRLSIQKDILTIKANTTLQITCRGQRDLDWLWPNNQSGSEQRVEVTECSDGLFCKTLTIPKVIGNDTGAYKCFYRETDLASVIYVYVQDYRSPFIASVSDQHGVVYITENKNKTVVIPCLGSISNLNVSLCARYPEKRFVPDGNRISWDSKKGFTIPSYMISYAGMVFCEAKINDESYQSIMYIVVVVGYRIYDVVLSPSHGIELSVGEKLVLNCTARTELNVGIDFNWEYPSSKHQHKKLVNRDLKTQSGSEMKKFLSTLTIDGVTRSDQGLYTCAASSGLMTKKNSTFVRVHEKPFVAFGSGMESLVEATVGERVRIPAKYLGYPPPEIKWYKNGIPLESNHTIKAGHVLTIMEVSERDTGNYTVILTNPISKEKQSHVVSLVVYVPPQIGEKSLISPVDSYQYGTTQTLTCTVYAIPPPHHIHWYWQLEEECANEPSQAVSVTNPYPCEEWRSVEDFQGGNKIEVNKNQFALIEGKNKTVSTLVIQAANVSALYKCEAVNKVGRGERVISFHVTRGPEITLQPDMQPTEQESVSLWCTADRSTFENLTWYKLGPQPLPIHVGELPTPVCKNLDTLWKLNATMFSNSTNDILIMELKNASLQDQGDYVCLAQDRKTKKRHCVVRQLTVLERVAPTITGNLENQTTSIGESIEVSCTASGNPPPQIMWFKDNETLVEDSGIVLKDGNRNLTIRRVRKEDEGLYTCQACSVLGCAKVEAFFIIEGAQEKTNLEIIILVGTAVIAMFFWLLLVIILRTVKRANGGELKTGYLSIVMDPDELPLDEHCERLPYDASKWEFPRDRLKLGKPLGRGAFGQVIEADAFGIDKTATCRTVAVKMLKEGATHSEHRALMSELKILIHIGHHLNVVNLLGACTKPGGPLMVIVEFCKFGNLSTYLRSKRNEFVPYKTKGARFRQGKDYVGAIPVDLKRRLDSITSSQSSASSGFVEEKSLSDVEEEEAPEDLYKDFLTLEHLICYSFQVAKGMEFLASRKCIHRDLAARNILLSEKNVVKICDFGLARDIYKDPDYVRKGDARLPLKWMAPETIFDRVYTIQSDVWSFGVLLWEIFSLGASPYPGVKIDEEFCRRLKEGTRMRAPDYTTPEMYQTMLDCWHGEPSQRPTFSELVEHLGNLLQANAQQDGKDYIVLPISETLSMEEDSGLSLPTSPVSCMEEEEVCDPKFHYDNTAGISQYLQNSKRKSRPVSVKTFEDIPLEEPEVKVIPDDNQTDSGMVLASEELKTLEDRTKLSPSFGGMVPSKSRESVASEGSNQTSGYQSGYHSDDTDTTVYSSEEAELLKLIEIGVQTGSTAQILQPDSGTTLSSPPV
PROTOCOL DETAILS: cell-based or functional assay
EXPERIMENTAL READOUT: % Inhibition of VEGF165-mediated pTyr Activity, n = 2
Answer shape: numeric part, then the unit.

# count of solved cases: 2
binder="anti-KDR monoclonal antibody 29H3 (antibody, V domains shown, Fully human mAb from XenoMouse (IgG2 or IgG4 strain); hybridoma supernatant) VH: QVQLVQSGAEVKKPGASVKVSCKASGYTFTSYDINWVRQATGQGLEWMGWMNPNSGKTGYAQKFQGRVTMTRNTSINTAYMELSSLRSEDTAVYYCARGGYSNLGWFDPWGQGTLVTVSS VL: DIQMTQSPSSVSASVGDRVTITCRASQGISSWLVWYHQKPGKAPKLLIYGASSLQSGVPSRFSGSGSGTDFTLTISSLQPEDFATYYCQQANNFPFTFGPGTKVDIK" reported=72%
binder="anti-KDR monoclonal antibody 33B1 (antibody, V domains shown, Fully human mAb from XenoMouse (IgG2 or IgG4 strain); hybridoma supernatant) VH: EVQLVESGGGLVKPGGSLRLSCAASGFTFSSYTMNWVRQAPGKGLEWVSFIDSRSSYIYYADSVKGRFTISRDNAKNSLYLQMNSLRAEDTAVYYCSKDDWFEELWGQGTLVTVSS VL: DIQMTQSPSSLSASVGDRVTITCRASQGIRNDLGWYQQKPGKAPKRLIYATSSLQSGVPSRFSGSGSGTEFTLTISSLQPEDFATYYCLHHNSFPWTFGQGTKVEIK" reported=56%

Would you mind telling me what % Inhibition of VEGF165-mediated pTyr Activity, n = 2 value was observed for anti-KDR monoclonal antibody 33C3 (antibody, V domains shown, Fully human mAb from XenoMouse (IgG2 or IgG4 strain); hybridoma supernatant) VH: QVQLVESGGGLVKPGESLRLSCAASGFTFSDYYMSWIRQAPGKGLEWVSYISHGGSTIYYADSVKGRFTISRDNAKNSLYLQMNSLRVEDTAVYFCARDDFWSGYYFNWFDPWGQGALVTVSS VL: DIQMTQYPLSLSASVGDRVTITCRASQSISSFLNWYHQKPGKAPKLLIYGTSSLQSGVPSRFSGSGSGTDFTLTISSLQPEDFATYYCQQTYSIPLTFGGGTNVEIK ?
75%

Would you mind telling me what % Inhibition of VEGF165-mediated pTyr Activity, n = 2 value was observed for anti-KDR monoclonal antibody 1G6 (antibody, V domains shown, Fully human mAb from XenoMouse (IgG2 or IgG4 strain); tested here as hybridoma supernatant) VH: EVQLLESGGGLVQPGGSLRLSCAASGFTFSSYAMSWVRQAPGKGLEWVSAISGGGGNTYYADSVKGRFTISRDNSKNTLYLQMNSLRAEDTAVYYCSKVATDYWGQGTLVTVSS VL: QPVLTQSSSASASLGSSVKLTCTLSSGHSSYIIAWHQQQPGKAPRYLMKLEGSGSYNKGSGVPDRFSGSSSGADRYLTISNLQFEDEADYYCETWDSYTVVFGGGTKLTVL ?
67%

Would you mind telling me what % Inhibition of VEGF165-mediated pTyr Activity, n = 2 value was observed for anti-KDR monoclonal antibody 21A1 (antibody, V domains shown, Fully human mAb from XenoMouse (IgG2 or IgG4 strain); hybridoma supernatant) VH: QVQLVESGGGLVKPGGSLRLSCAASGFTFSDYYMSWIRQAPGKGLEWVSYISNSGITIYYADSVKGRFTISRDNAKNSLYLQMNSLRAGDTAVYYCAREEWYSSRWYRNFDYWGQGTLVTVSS VL: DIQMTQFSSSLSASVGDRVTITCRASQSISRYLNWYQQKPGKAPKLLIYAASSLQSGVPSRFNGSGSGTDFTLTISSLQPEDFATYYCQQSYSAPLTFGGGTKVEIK ?
77%
